Source of measurements: patent US20130273029A1

Each entry below carries its reported SK-Br-3 pHER3 IC50.
Measurement target: Human HER3, endogenous, on human cancer cell lines (SK-Br-3, MCF7, BT-474) (human, UniProt P21860 20-1342)
Sequence (P21860 20-1342): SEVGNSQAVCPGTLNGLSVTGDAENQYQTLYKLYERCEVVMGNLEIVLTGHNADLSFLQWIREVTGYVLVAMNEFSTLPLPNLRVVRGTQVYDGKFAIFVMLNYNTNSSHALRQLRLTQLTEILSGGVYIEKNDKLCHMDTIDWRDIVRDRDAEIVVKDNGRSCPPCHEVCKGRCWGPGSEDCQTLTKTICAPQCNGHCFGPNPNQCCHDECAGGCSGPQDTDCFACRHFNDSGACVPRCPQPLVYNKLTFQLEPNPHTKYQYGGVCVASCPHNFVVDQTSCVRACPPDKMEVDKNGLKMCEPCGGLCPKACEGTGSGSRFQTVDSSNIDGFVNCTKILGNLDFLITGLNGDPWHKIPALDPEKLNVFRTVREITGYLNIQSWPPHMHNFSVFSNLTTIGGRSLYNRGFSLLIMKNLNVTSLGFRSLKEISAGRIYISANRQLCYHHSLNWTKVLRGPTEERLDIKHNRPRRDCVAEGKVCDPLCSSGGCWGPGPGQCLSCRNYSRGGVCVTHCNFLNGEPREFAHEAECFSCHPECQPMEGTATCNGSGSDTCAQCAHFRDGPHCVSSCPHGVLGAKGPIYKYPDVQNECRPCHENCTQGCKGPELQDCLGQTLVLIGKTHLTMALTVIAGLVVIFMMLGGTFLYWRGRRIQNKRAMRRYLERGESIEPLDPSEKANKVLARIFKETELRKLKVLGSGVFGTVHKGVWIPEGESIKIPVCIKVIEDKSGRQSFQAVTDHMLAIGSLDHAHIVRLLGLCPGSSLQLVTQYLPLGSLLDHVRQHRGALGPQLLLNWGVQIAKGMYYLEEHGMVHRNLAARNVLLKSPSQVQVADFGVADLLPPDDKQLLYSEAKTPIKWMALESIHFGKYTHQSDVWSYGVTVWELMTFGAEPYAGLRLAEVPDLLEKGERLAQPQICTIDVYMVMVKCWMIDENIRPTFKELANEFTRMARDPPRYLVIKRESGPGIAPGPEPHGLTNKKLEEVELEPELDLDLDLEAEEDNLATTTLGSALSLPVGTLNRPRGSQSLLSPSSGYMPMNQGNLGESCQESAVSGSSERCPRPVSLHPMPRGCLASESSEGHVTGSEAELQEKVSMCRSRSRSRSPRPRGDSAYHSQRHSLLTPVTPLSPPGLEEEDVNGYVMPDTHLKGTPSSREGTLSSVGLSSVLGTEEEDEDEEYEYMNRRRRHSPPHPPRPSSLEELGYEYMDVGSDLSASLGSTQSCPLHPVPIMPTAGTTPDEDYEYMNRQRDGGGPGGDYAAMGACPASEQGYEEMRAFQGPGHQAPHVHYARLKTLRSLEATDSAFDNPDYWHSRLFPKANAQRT
Measurement notes: cell-based or functional assay
Please give a number only; it is taken to be in pM.

Sample answers from the record:
Exercise: Which measured SK-Br-3 pHER3 IC50 value corresponds to MOR12509 (antibody, human IgG1, kappa, V domains shown, tested as IgG) VH: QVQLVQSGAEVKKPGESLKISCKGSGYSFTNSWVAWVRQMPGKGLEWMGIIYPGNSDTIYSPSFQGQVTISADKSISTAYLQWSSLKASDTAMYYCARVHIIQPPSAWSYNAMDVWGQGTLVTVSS VL: DIQMTQSPSSLSASVGDRVTITCRASQSITHYLNWYQQKPGKAPKLLIFGASNLQSGVPSRFSGSGSGTDFTLTISSLQPEDFATYYCQQAFVDPSTTFGQGTKVEIKR ?
Key: 483

Exercise: And MOR12616 (antibody, human IgG1, kappa, V domains shown, tested as IgG) VH: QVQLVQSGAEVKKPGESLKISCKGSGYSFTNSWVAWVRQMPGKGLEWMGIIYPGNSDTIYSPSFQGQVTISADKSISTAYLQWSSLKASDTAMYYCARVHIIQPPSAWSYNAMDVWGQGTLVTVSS VL: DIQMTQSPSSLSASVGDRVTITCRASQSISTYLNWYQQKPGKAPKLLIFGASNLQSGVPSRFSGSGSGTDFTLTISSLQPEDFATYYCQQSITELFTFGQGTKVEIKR ?
Key: 142

Next:
Exercise: Looking for the measured SK-Br-3 pHER3 IC50 of MOR13767 (antibody, human IgG1, kappa, V domains shown, tested as IgG) VH: QVQLVQSGAEVKKPGESLKISCKGSGYSFTTSWVAWVRQMPGKGLEWMGIIYPGQSDTIYSPSFQGQVTISADKSISTAYLQWSSLKASDTAMYYCARVHIIQPPSAWSYNAMDVWGQGTLVTVSS VL: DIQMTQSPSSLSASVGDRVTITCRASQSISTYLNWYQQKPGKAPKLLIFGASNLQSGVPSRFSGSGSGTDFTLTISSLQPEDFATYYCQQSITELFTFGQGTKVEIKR , can you help?
Key: 130
